# System: HepG2 (hepatocellular carcinoma) cell line
# test: CellTiter-Glo luminescent cell viability assay, HepG2
# Assay type: cell-based, human
# test_context: Homo sapiens, HepG2; HepG, compound at 4 μM, 72 h

{"compound": "CC(C)(C)NC1CCN(c2c(C#N)c(Nc3cnccn3)nc3ccccc23)CC1 [Compound 3284CN]", "viability at 4 µM, %": 90}
{"compound": "Cc1ccc(OC2CCCN(c3c(C#N)c(NCc4ccc(Cl)cc4)nc4ccccc34)C2)cc1 (stereo not shown) [Compound 3234CN]", "viability at 4 µM, %": 89.8}
{"compound": "N#Cc1c(NCc2ccc(Cl)cc2)nc2ccccc2c1N1CCC(NC2CCOCC2)C1 (stereo not shown) [Compound 136CN]", "viability at 4 µM, %": 88.6}
{"compound": "CN1CCN(C2CCCN(c3c(C#N)c(NCc4ccc(Cl)cc4)nc4ccccc34)C2)CC1 (stereo not shown) [Compound 3168CN]", "viability at 4 µM, %": 87.8}
